Data provenance is PubChem BioAssay (NCI).

assay: NCI Yeast Anticancer Drug Screen. Data for the mec2-1 strain (AID 157); conditions: S. cerevisiae mec2-1 strain, at 5.0 µM (retest, dose inferred, filed as 0.5), stronger effect = higher value
Compounds without any hit were thinned out: in the full panel of roughly 79,000, 15% have a hit.
I'd be grateful if you could share measured growth inhibition for these entries.
Unit % implied. Number only.

Would you kindly share the measured growth inhibition for C[C@@H]1CCC2[C@@H](C)[C@H](O[C@H]3O[C@@H]4O[C@@]5(C)CCC6[C@H](C)CCC([C@H]3C)[C@]64OO5)O[C@@H]3O[C@@]4(C)CCC1[C@@]23OO4 (stereo partly drawn) ?
95

CCCCC1CCCCCCc2[nH]c(/C=C3\N=C(c4ccc[nH]4)C=C3OC)cc21 (stereo not drawn) ?
23

# iterate: C[As](C)SCC1OC2OC(C)(C)OC2C2OC(C)(C)OC12 (stereo not drawn)
21

Next: COC(=O)C1=C(C(=O)OC)[C]([Hg][CH3])(C(C)=O)N=N1 (stereo not drawn)
99

Request: C(=C/P(c1ccccc1)c1ccccc1)/P(c1ccccc1)c1ccccc1.C(=CP(c1ccccc1)c1ccccc1)P(c1ccccc1)c1ccccc1.[Pt]
38

Now the compound CC12CCC(O)CC1CCC1C2CCC2(C)C(C(=O)CC(O)C(F)(F)F)CCC12 (stereo not drawn)
8

What about O=C(COc1ccc(Cl)c(Cl)c1)N(Cc1ccccc1)Cc1ccc[n+](Cc2ccc(S(=O)(=O)F)cc2)c1 ?
-59

Next: CCC(C)(C)c1ccc(OP(=S)(S)Oc2ccc(C(C)(C)CC)cc2)cc1
3

Now consider O=C(c1ccccc1)c1c(CC(O)c2ccncc2)n(C(=O)c2ccccc2)c2ccccc12 (stereo not drawn) .
-2

Note, next up: COC(=O)C1c2cc3c(c(O)c2C(O)CC1(C)O)C(=O)c1c(O)cc2c(c1C3=O)OC1OC2(C)C(O)C(N(C)C)C1O (stereo not drawn)
12

Also check O=[N+]([O-])c1csc([N+](=O)[O-])c1
97

Okay, and Cc1cc(-c2ccccc2)cc(C)[n+]1[O-] ?
-6

Next: CC(C)=[CH][Sb]([Br])([CH]=C(C)C)([CH]=C(C)C)[CH]=C(C)C
-4

Next compound up: [N-]=[N+]=NS(=O)(=O)c1cccc([N+](=O)[O-])c1
-17

// query: CC(C)(C)OOC(=O)c1ccccc1
11

Next up: C1CC[N-]CC1.[Cl][Au]([Cl])[Cl]
15

// next record OC(c1cc2c(c3ccccc13)CCCC2)C1CCCCN1 (stereo not drawn)
-1

Same for CCC(=O)O[C@H]1CC[C@H]2[C@@H]3CCC4=C/C(=N/OC(=O)c5cccc6c(=O)c7ccccc7[nH]c56)CC[C@]4(C)[C@H]3CC[C@]12C
26

Another compound to look at: [Cl][Hg][Cl].c1cnccn1
40

Consider next the compound COC(COC(N)=O)C1=C(N2CC2)C(=O)C(C)=C(N2CC2)C1=O (stereo not drawn) in the same way.
39

Next record, please: CCCCCCCCCCCCC(=O)[O][Hg][c]1ccccc1
100

Consider next the compound COC(=O)C1=C(O)C(C(=O)OC)[C@]2(O)[C@@H](C(=O)OC)[C@H]1C[C@@H](c1ccccc1)[C@@H]2C(=O)OC (stereo partly drawn) in the same way.
3

Another: C=CCN1C(=O)NC(=O)/C(=C/c2c3ccccc3cc3ccccc23)C1=O
85

How about C[CH2][Sn]([CH2]C)([S]CCS(=O)(=O)O)[S]CCS(=O)(=O)O (tested in a mixture with another compound) ?
17

Same thing, different compound: COC1=CC(C)(C)C=C([Se][Se]C2=CC(C)(C)C=C(OC)C2=O)C1=O
83

Also O=C1[O][Hg][c]2cccc3cccc1c23 , if possible.
100

Queued: O=C(c1ccccc1)C1C(c2ccccc2[N+](=O)[O-])N1C1CCCCC1 (stereo not drawn)
1

What would you report for O=P(CP(=O)(c1ccccc1)c1ccccc1)(c1ccccc1)c1ccccc1.[CH3][Sn]([CH3])([Cl])[Cl] ?
21

Try the compound CC[C@@]1(O)C[C@H](OC2CC(N(C)C)C(O)C(C)O2)c2c(O)c3c(c(O)c2[C@H]1OC1CC(N(C)C)C(O)C(C)O1)C(=O)c1cccc(O)c1C3=O (stereo partly drawn)
10

// repeat for CCCCCCCCCCCCCC(=O)O and report
11

How about C[C@H](N)C(=O)N[C@@H]1[C@H]2C(=C(O)C[C@@H](O)[C@@H]2O)C(=O)O[C@]1(C)C(Cl)Cl ?
7

And for COc1cc2c3c(c1)-c1c(ccc(OC)c1OC)CC3N(CCCl)CC2 (stereo not drawn) ?
11

Repeat for the following compound: [Cl][Sn]([c]1ccccc1)[c]1ccccc1
30
